- Tested on: MDA-MB-468 breast
- Experiment Notes: NCI-60 one-dose screen, 48 h
- Study Conditions: 10 µM unless noted
- Experimental: Growth inhibition of the MDA-MB-468 human Breast tumor cell line is measured as a screen for anti-cancer activity. Cells are grown in 96 well plates and exposed to the test compound for 48 hours. Compounds are tested at a single concentration, which is 10^-5 M for most compounds. The reported endpoint is percent growth (GI% or GIPRCNT), where numbers from 0 - 100% represent growth inhibition, and numbers from -100% - 0 represent cell death. […]
About 83,000 compounds went through this panel and 20% of them were active in at least one assay; those are over-represented in the sample as a whole. Calls of active or inactive are those of the source. Rule for the calls: active = growth percent below 10; inactive = the rest.
Pick one and only one: YES (active), NO (inactive)

Enquiry: Hey, what did the test say about Nc1ccc(/C=N/Nc2ccnc3c(N)cccc23)c2cccnc12 ?
Return: YES

Enquiry: Hey, what did the test say about O=C(CSc1nc2sc3c(c2c(=O)n1Cc1ccccc1)CCCC3)N1CCN(c2ccccc2)CC1 ?
Return: NO

Enquiry: Hey, what did the test say about CC1=NN(c2cccc(S(N)(=O)=O)c2)C(=O)C1 ?
Return: NO

Enquiry: Hey, what did the test say about C#Cc1ccccc1NC(=O)c1sc2nc3c(cc2c1N)CCCCC3 ?
Return: NO

Enquiry: Hey, what did the test say about Cn1ccnc1C(=O)/C=C/c1ccc(C(=O)Nc2ccccc2F)cc1 ?
Return: NO

Enquiry: Hey, what did the test say about COc1cc2cc3c(=O)n4c(cc5cc(OC)ncc54)c(=O)n3c2cn1 ?
Return: NO

Enquiry: Hey, what did the test say about N/C(=N\c1nc2ccccc2[nH]1)NC(=O)Cc1cccc2ccccc12 ?
Return: NO

Enquiry: Hey, what did the test say about CC(C)=CCc1c(O)c(CC=C(C)C)c2c(c1O)C(=O)C1=C[C@@H]3C[C@H]4C(C)(C)O[C@@](C/C=C(\C)C(=O)O)(C3=O)[C@@]14O2 ?
Return: YES

Enquiry: Hey, what did the test say about COc1cc(/C=C/C(=O)c2ccc(Cl)cc2)ccc1OS(=O)(=O)c1ccc(C)cc1 ?
Return: NO

Enquiry: Hey, what did the test say about CNC(=O)c1cc(Oc2ccc3nc(NC(=O)c4cccc(C(F)(F)F)c4)sc3c2)ccn1 ?
Return: NO

Enquiry: Hey, what did the test say about CC(C)(C)n1cc(-c2ccnc(NCCCNS(=O)(=O)c3cccc(F)c3)c2)c(-c2cccc(O)c2)n1 ?
Return: NO

Enquiry: Hey, what did the test say about c1ccc(C(NC2CC3CCC2C3)c2ccccc2)cc1 (stereo not drawn) ?
Return: NO

Enquiry: Hey, what did the test say about Nc1c(C(=O)Nc2cccc3ccccc23)sc2nc3c(cc12)CCCCC3 ?
Return: NO

Enquiry: Hey, what did the test say about c1ccc([P+](c2ccccc2)(c2ccccc2)c2ccc3c4ccc([P+](c5ccccc5)(c5ccccc5)c5ccccc5)c5cccc(c6cccc2c63)c54)cc1 ?
Return: YES

Enquiry: Hey, what did the test say about COc1ccc(C(=O)CCC(=O)O)cc1 ?
Return: NO

Enquiry: Hey, what did the test say about COc1cc2nc3c(=O)n(CCN(C)C)cnn3c(=O)c2cc1OC ?
Return: NO

Enquiry: Hey, what did the test say about CCCCCCCCNc1ncnc2c1ncn2Cc1nnc2c3ccccc3c(Cl)nn12 ?
Return: NO

Enquiry: Hey, what did the test say about CN(CCC(=O)/C(=C\c1ccccc1)c1ccc(Cl)cc1)Cc1ccccc1 ?
Return: YES

Enquiry: Hey, what did the test say about FC(F)(F)c1ccc(-c2cn3nc(-c4c[nH]c5ccc(Br)cc45)sc3n2)cc1 ?
Return: NO

Enquiry: Hey, what did the test say about COc1cc(NCCCCCNC(C)(C)C)c2ncccc2c1 ?
Return: YES

Enquiry: Hey, what did the test say about C=CCNC(=S)N/C=C(/C(=O)c1ccccc1)c1ccccc1 ?
Return: NO

Enquiry: Hey, what did the test say about CN(C)c1ccc(C(c2ccc(O)cc2)c2ccc(N(C)C)cc2)cc1 ?
Return: YES

Enquiry: Hey, what did the test say about O=S(=O)(NCCCNc1nccc(-c2c(-c3cccc(F)c3)nc3occn23)n1)c1ccc(F)cc1 ?
Return: NO

Enquiry: Hey, what did the test say about COc1ccc(C(=O)N2C=Cc3ccccc3C2C#N)cc1 (stereo not drawn) ?
Return: NO

Enquiry: Hey, what did the test say about Oc1ccccc1/C=N\NC(=S)Nc1ccc(F)cc1 ?
Return: YES

Enquiry: Hey, what did the test say about C#CCOc1cccc(Nc2ncnc3cc(NC(=O)C=C)ccc23)c1 ?
Return: YES

Enquiry: Hey, what did the test say about O=c1cc/c(=N\Nc2ccccc2)c(=O)/c1=N/Nc1ccccc1 ?
Return: NO

Enquiry: Hey, what did the test say about C=C1C(=O)C2CCN1CC2 ?
Return: NO

Enquiry: Hey, what did the test say about O=C1c2cc(Cl)ccc2-c2c(O)cc(Cl)cc21 ?
Return: NO

Enquiry: Hey, what did the test say about CC(C)(C)c1ccc(CC(=O)Nc2sc3c(c2C(N)=O)CCC(=O)C3)cc1 ?
Return: YES

Enquiry: Hey, what did the test say about O=C(Nc1ccc(Br)cc1F)c1cc(I)ccc1O ?
Return: YES

Enquiry: Hey, what did the test say about C#CCOc1ccc2ncnc(Nc3cccc(CNC(=O)CCl)c3)c2c1 ?
Return: YES

Enquiry: Hey, what did the test say about CC(=O)NCCN ?
Return: NO

Enquiry: Hey, what did the test say about O=C1NC(=O)c2c(CCCSc3nc4ccccc4c(=O)n3CCc3ccccc3)cccc21 ?
Return: NO

Enquiry: Hey, what did the test say about CC(=[N-])N1CCC[C@@H](Nc2c3ccccc3nc3ccccc23)C1.[Cl][Pt].[NH-]CCC[NH-] ?
Return: YES

Enquiry: Hey, what did the test say about CC(C)CCOc1ccc(-c2n[nH]c(C(F)(F)F)c2-c2cncc(C#N)c2)c(O)c1 ?
Return: YES

Enquiry: Hey, what did the test say about CNC(=O)c1ccccc1Sc1ccc2c(/C=C/c3ccccn3)n[nH]c2c1 ?
Return: NO

Enquiry: Hey, what did the test say about CCOc1cccc(/C=N/NC(=O)c2cccc(Nc3ccnc(C(F)(F)F)c3)c2)c1O ?
Return: NO

Enquiry: Hey, what did the test say about Nc1nc(N)c2c(n1)NC(c1ccccc1)C1CCc3ccccc3C1=N2 (stereo not drawn) ?
Return: YES

Enquiry: Hey, what did the test say about CCCCCCCCCCCCCCCCCC1=NCCCN1CCO ?
Return: NO

Enquiry: Hey, what did the test say about COc1ccc(NC(=O)Nc2ccc(Nc3nc(C)cc(Nc4ccc(C)cc4)n3)cc2)cc1 ?
Return: YES

Enquiry: Hey, what did the test say about Cc1ccc(OC(=O)c2ccccc2)cc1 ?
Return: NO

Enquiry: Hey, what did the test say about O=C(Nc1ccccc1-c1nc2ccccc2c(=O)[nH]1)c1cc2ccccc2[nH]1 ?
Return: NO

* * *

- Tested on: MDA-MB-468 breast
- Experiment Notes: NCI-60 one-dose screen, 48 h (100 = growth as untreated, 0 = no growth, -100 = all killed)
- Study Conditions: 10 µM unless noted
About 83,000 compounds went through this panel and 20% of them were active in at least one assay; those are over-represented in the sample as a whole.
Readout Type: growth (%)
Write the number in % without appending the unit.

Enquiry: Answer with reported growth of COc1ccc2ccccc2c1/C=N/N1CCCCC1
Return: 113

Enquiry: Answer with reported growth of COc1cc(C(=O)OCCCCCCCCCCC[P+](c2ccccc2)(c2ccccc2)c2ccccc2)ccc1O
Return: -27.7

Enquiry: Answer with reported growth of C[N+](C)(CCCCCC[N+](C)(C)C1c2ccccc2-c2ccccc21)C1c2ccccc2-c2ccccc21
Return: 107

Enquiry: Answer with reported growth of COc1ccc2c(c1)oc1c(C)c3c(c(C)c12)C(=O)N(CCN1CCOCC1)C3=O
Return: 106

Enquiry: Answer with reported growth of COC(=O)[C@H](C)NC(=O)[C@@H](OC)[C@@H]1Cc2cc3cc(OC4CC(OC5CC(O)C(O)C(C)O5)C(O)C(C)O4)c(C)c(O)c3c(O)c2C(=O)[C@H]1OC1CC(OC2CC(OC3CC(C)(O)C(O)C(C)O3)C(O)C(C)O2)C(O)C(C)O1 (some centres undefined)
Return: -36.2

Enquiry: Answer with reported growth of O=C1C(Nc2ccc(Br)cc2)=C(I)C(=O)c2ncccc21
Return: -81.4

Enquiry: Answer with reported growth of C=C[C@@H]1C[C@H](O)Cc2c(C)cc(C)cc2N1
Return: 91.9

Enquiry: Answer with reported growth of CCCCN(C(=O)CC)c1ccccc1
Return: 106

Enquiry: Answer with reported growth of CC(=O)NNC(=O)c1sc(NC(C)=O)nc1C
Return: 104

* * *

- Test system: CCRF-CEM leukemia
- Experiment Notes: NCI-60 one-dose screen, 48 h (100 = growth as untreated, 0 = no growth, -100 = all killed)
- Study Conditions: 10 µM
About 83,000 compounds went through this panel and 20% of them were active in at least one assay; those are over-represented in the sample as a whole.
Please assign a class to every record based on measured growth, with ranges low value: < 30%; medium value: ≥ 30% and < 80%; high value: ≥ 80%

Enquiry: # bin lookup: classify COc1ccc(OC)c(-n2cc(C#N)c(N)c2C(=O)c2ccc(Cl)cc2Cl)c1 by its growth
Return: low value

Enquiry: # bin lookup: classify COC(=O)CNC(=O)COc1c(OC)c(OC)cc2oc(-c3cccc(C(=O)Nc4ccc(Cl)cc4)c3)cc(=O)c12 by its growth
Return: high value

Enquiry: # bin lookup: classify CC1[C@H]2[C@H](C[C@H]3[C@@H]4CC=C5c6sc(Nc7cccc(Cl)n7)nc6CC[C@]5(C)[C@H]4CC[C@@]32C)O[C@]12CC[C@@H](C)CO2 (some centres not stated) by its growth
Return: medium value

Enquiry: # bin lookup: classify O=C(CC(=O)Nc1ccc(Oc2ncnc3scc(Nc4n[nH]c(=S)s4)c23)cc1)Nc1ccc(Br)cc1 by its growth
Return: medium value

Enquiry: # bin lookup: classify COc1ccc(NCc2cn(-c3ccc(C(=O)O)cc3)nc2-c2ccc(F)cc2)cc1C(F)(F)F by its growth
Return: medium value

Enquiry: # bin lookup: classify O=C(c1ccccc1)c1ccc2nc(-c3ccccc3Br)[nH]c2c1 by its growth
Return: low value

Enquiry: # bin lookup: classify CCn1c(SCC(=O)Nc2ccc(-c3nc4ccccc4[nH]3)cc2)nc2ccccc2c1=O by its growth
Return: medium value

Enquiry: # bin lookup: classify COc1cc(C2CC(c3ccccc3)=Nc3c(N)nc(N)nc3N2)ccc1Oc1nc(NCCO)nc(N2CCOCC2)n1 (configuration not stated) by its growth
Return: high value

Enquiry: # bin lookup: classify COc1ccc(C2OC[C@@]3(C)C4CC[C@]5(C)C(CC=C6C7CC(C)(C)CC[C@]7(C(=O)O)CC[C@]65C)[C@@]4(C)C[C@@H](O)[C@@H]3O2)cc1 (some centres not stated) by its growth
Return: medium value

Enquiry: # bin lookup: classify COc1cc2oc(-c3cccc(C(=O)Nc4ccc(Cl)cc4)c3)cc(=O)c2c(OCCNC(=O)[C@@H](N)CO)c1OC by its growth
Return: low value

Enquiry: # bin lookup: classify COc1ccc(C2c3sc4ccc(C)cc4c3Oc3nc(N)nc(N)c32)cc1 (configuration not stated) by its growth
Return: high value

Cited source for all entries: PubChem BioAssay (NCI)
